TARGET UNDER TEST: KRAS-G12D protein (Homo sapiens, UniProt P01116, G12D)
Sequence (P01116 1-188 isoform P01116-2 G12D): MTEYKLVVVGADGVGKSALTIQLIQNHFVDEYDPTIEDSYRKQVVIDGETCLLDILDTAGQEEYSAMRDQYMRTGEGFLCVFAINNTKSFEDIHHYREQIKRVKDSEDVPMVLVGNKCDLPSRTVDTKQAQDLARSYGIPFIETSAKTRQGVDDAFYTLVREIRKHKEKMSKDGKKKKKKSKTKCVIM
EXPERIMENT SUMMARY: SOS-mediated nucleotide exchange assay (BODIPY-GDP / Tb-streptavidin TR-FRET)
Type: biochemical
*1 amine or outer side, *2 acyl side, *3 side chain or, on linkers, in order; H or OH if unused. Where a SMILES comes first, the peptide text is derived from it. [ ]: non-standard residue; d: D form. Phe(4-guanidino) = N=C(N)Nc1ccc(C[C@H](N)C(=O)O)cc1; X76 = CN(CCC[C@@H](C(=O)[*:2])N(C)[*:1])S(C)(=O)=O; X6 = O=C([C@H](Cc1cnn(C2COC2)c1)N[*:1])[*:2]; 1Nal = N[C@@H](Cc1cccc2ccccc12)C(=O)O; Phe(2-F) = N[C@@H](Cc1ccccc1F)C(=O)O; NMe3Pal = CN[C@@H](Cc1cccnc1)C(=O)O; X1 = O=C(C12CC(CN[*:1])(C1)C2)[*:2]; NMeF = CN[C@@H](Cc1ccccc1)C(=O)O; PhLac = O=C(O)[C@@H](O)Cc1ccccc1; 3Pal = N[C@@H](Cc1cccnc1)C(=O)O; NMeA = CN[C@@H](C)C(=O)O; Nle = CCCC[C@H](N)C(=O)O
Recorded EC50 for the following molecules
Give a bare numeral; the unit µM is implied.

Ask | State the recorded EC50 for this entry: CCCC[C@@H]1NC(=O)[C@H](Cc2ccc(NC(=N)N)cc2)NC(=O)[C@H](CCCNC(=N)N)NC(=O)[C@H](Cc2cccc3ccccc23)NC(=O)CNC(=O)[C@@H](C)NC(=O)[C@H](Cc2ccccc2)N(C)C(=O)[C@H](CCCC)NC(=O)[C@H](Cc2ccc(O)cc2)NC1=O [compound 200, cyclo(1Nal-R-Phe4Gn-Nle-Y-Nle-NMeF-dA-G)] (cyclo([1Nal]R[Phe(4-guanidino)][Nle]Y[Nle][NMeF][dA]G))
Reply | 0.0529

Ask | State the recorded EC50 for this entry: CCCC[C@@H]1NC(=O)[C@H](Cc2cnn(C3COC3)c2)NC(=O)[C@H](C)N(C)C(=O)[C@H](Cc2ccccc2)OC(=O)C23CC(CNC(=O)[C@H](Cc4ccccc4)N(C)C(=O)[C@H](CCCC)NC(=O)[C@H](Cc4ccccc4F)NC1=O)(C2)C3 [compound 317] (cyclo([NMeA][X6][Nle][Phe(2-F)][Nle][NMeF][X1][PhLac]))
Reply | 0.0227

Ask | State the recorded EC50 for this entry: CCCC[C@@H]1NC(=O)[C@H](Cc2cccnc2)NC(=O)[C@H](CCCN(C)S(C)(=O)=O)N(C)C(=O)[C@H](Cc2ccccc2)OC(=O)C23CC(CNC(=O)[C@H](Cc4cccnc4)N(C)C(=O)[C@H](CCCC)NC(=O)[C@H](Cc4ccccc4F)NC1=O)(C2)C3 [compound 406] (cyclo([3Pal][Nle][Phe(2-F)][Nle][NMe3Pal][X1][PhLac][X76]))
Reply | 0.026

---

TARGET UNDER TEST: KRAS-G12D protein (Homo sapiens, UniProt P01116, G12D)
EXPERIMENT SUMMARY: SOS-mediated nucleotide exchange assay (BODIPY-GDP / Tb-streptavidin TR-FRET)
Assay type: biochemical
*1 amine or outer side, *2 acyl side, *3 side chain or, on linkers, in order; H or OH if unused. Where a SMILES comes first, the peptide text is derived from it. Bridges are numbered along the chain shown (N, C = ends). [ ]: non-standard residue; d: D form. Phe(4-guanidino) = N=C(N)Nc1ccc(C[C@H](N)C(=O)O)cc1; Ala(pyrimidin-5-yl) = N[C@@H](Cc1cncnc1)C(=O)O; X6 = O=C([C@H](Cc1cnn(C2COC2)c1)N[*:1])[*:2]; NMePhe(3-Me) = CN[C@@H](Cc1cccc(C)c1)C(=O)O; X43 = CN([C@@H](Cc1cnccc1F)C(=O)[*:2])[*:1]; X13 = O=C([C@H](Cc1ccncc1F)N[*:1])[*:2]; Nle(5,5-F2) = CC(F)(F)CC[C@H](N)C(=O)O; X32 = CS(=O)(=O)CCCN(CC(=O)[*:2])[*:1]; Phe(2-F) = N[C@@H](Cc1ccccc1F)C(=O)O; NMe3Pal = CN[C@@H](Cc1cccnc1)C(=O)O; X1 = O=C(C12CC(CN[*:1])(C1)C2)[*:2]; Ala(cPr) = N[C@@H](CC1CC1)C(=O)O; NMeF = CN[C@@H](Cc1ccccc1)C(=O)O; PhLac = O=C(O)[C@@H](O)Cc1ccccc1; 3Pal = N[C@@H](Cc1cccnc1)C(=O)O; Ahp(2) = CCCCC[C@H](N)C(=O)O; Cba = N[C@@H](CC1CCC1)C(=O)O; hLeu = CC(C)CC[C@H](N)C(=O)O; NMeS = CN[C@@H](CO)C(=O)O; αMeC = C[C@](N)(CS)C(=O)O; NMeA = CN[C@@H](C)C(=O)O; Nle = CCCC[C@H](N)C(=O)O
Consider the cut-off 50 nM. If the recorded EC50 is strictly smaller, the label is satisfied; if not, the label is not satisfied.

Completed entries (count: 6):
Ask | is_below(EC50, 50 nM) for CCCCC[C@@H]1NC(=O)[C@H](Cc2ccc(OC)cc2)NC(=O)[C@H](CCCC)NC(=O)[C@H](Cc2ccc(NC(=N)N)cc2)NC(=O)[C@H](CCCNC(=N)N)NC(=O)[C@H](Cc2ccccc2)NC(=O)CSC[C@H](C(N)=O)NC(=O)[C@H](Cc2ccccc2)N(C)C1=O [compound 350] ({CH2CO}-FR[Phe(4-guanidino)][Nle]Y(Me)[Ahp(2)][NMeF][dC]-NH2; thioether N-8) ?
Reply | satisfied

Ask | is_below(EC50, 50 nM) for CCCCC[C@@H]1NC(=O)[C@H](Cc2ccc(OC)cc2)NC(=O)[C@H](CC2CCC2)NC(=O)[C@H](Cc2ccc(NC(=N)N)cc2)NC(=O)CN(CCCS(C)(=O)=O)C(=O)[C@H](Cc2ccccc2)NC(=O)CSC[C@@](C)(C(N)=O)NC(=O)[C@H](Cc2ccccc2)N(C)C1=O [compound 389] ({CH2CO}-F[X32][Phe(4-guanidino)][Cba]Y(Me)[Ahp(2)][NMeF][αMeC]-NH2; thioether N-8) ?
Reply | not satisfied

Ask | is_below(EC50, 50 nM) for COc1ccc(C[C@@H]2NC(=O)[C@H](CC3CCC3)NC(=O)[C@H](Cc3cccnc3)NC(=O)[C@H](CCCNC(=N)N)NC(=O)[C@H](Cc3ccccc3)NC(=O)CSC[C@](C)(C(N)=O)NC(=O)[C@@H]3CCCCCCCC[C@H](NC2=O)C(=O)N3C)cc1 [SEQ ID NO: 193] ?
Reply | not satisfied

Ask | is_below(EC50, 50 nM) for CCCC[C@@H]1NC(=O)[C@H](Cc2cccnc2)NC(=O)[C@H](COC)N(C)C(=O)[C@H](Cc2ccccc2)OC(=O)C23CC(CNC(=O)[C@H](Cc4cccnc4)N(C)C(=O)[C@H](CCCC)NC(=O)[C@H](Cc4ccccc4F)NC1=O)(C2)C3 [compound 255] (cyclo([3Pal][Nle][Phe(2-F)][Nle][NMe3Pal][X1][PhLac][NMeS](Me))) ?
Reply | not satisfied

Ask | is_below(EC50, 50 nM) for C[C@H]1C(=O)N[C@@H](Cc2cnn(C3COC3)c2)C(=O)N[C@@H](CC2CC2)C(=O)N[C@@H](Cc2ccccc2F)C(=O)N[C@@H](CCC(C)(F)F)C(=O)N(C)[C@@H](Cc2ccccc2)C(=O)NCC23CC(C2)(C3)C(=O)O[C@@H](Cc2ccccc2)C(=O)N1C [compound 291] (cyclo([Ala(cPr)][Phe(2-F)][Nle(5,5-F2)][NMeF][X1][PhLac][NMeA][X6])) ?
Reply | satisfied

Ask | is_below(EC50, 50 nM) for Cc1cccc(C[C@H]2C(=O)NCC34CC(C3)(C4)C(=O)O[C@@H](Cc3ccccc3)C(=O)N(C)[C@@H](C)C(=O)N[C@@H](Cc3cncnc3)C(=O)N[C@@H](CC3CC3)C(=O)N[C@@H](Cc3ccncc3F)C(=O)N[C@@H](CCC(C)C)C(=O)N2C)c1 [compound 279] (cyclo([Ala(cPr)][X13][hLeu][NMePhe(3-Me)][X1][PhLac][NMeA][Ala(pyrimidin-5-yl)])) ?
Reply | satisfied

Further cases:
Ask | is_below(EC50, 50 nM) for CCCC[C@@H]1NC(=O)[C@H](Cc2cncnc2)NC(=O)[C@H](C)N(C)C(=O)[C@H](Cc2ccccc2)OC(=O)C23CC(CNC(=O)[C@H](Cc4ccccc4)N(C)C(=O)[C@H](CCC(C)C)NC(=O)[C@H](Cc4ccccc4F)NC1=O)(C2)C3 [compound 132] (cyclo([NMeA][Ala(pyrimidin-5-yl)][Nle][Phe(2-F)][hLeu][NMeF][X1][PhLac])) ?
Reply | satisfied

Ask | is_below(EC50, 50 nM) for CCCC[C@@H]1NC(=O)[C@H](Cc2cccnc2)NC(=O)[C@H](C)N(C)C(=O)[C@H](Cc2ccccc2)OC(=O)CSC[C@@](C)(C(N)=O)NC(=O)[C@H](Cc2cccnc2)N(C)C(=O)[C@H](CCCC)NC(=O)[C@H](Cc2ccccc2F)NC1=O [compound 398] ({CH2CO}-[PhLac][NMeA][3Pal][Nle][Phe(2-F)][Nle][NMe3Pal][αMeC]-NH2; thioether N-8) ?
Reply | satisfied

Ask | is_below(EC50, 50 nM) for CC(C)CC[C@@H]1NC(=O)[C@H](Cc2ccccc2F)NC(=O)[C@H](CC2CC2)NC(=O)[C@H](Cc2cncnc2)NC(=O)[C@H](C)N(C)C(=O)[C@H](Cc2ccccc2)OC(=O)C23CC(CNC(=O)[C@H](Cc4cnccc4F)N(C)C1=O)(C2)C3 [compound 338] (cyclo([Ala(cPr)][Phe(2-F)][hLeu][X43][X1][PhLac][NMeA][Ala(pyrimidin-5-yl)])) ?
Reply | satisfied
